# Tested system: HLA-A*24 (human)
# Experimental protocol: UV-ligand exchange ELISA
Catalogue of binders with associated peptide exchange yield

Binder: TYSVSFPMF [peptide SEQ ID No 195]
peptide exchange yield: > 75%

### Prompt Endpoint output: peptide exchange yield of TYIESASEL [peptide SEQ ID No 279] . Value?
### Response 50 to 75%

### Prompt Endpoint output: peptide exchange yield of KYQDILETI [peptide SEQ ID No 168] . Value?
### Response > 75%

### Prompt Endpoint output: peptide exchange yield of AYLHSHALI [peptide SEQ ID No 274] . Value?
### Response > 75%

### Prompt Endpoint output: peptide exchange yield of RYLNKAFHI [peptide SEQ ID No 284] . Value?
### Response 50 to 75%

### Prompt Endpoint output: peptide exchange yield of KFSSFSLFF [peptide SEQ ID No 164] . Value?
### Response 50 to 75%

### Prompt Endpoint output: peptide exchange yield of VYWDSAGAAHF [peptide SEQ ID No 202] . Value?
### Response > 75%

### Prompt Endpoint output: peptide exchange yield of IFIEVFSHF [peptide SEQ ID No 178] . Value?
### Response 50 to 75%
